Listing: Zeta category ( +1 = if > 4 mV;-1 = if < -4 mV; 0 = -4mV to 4 mV) of selected substances
- ASSAY_TEXT: Zeta-potential measurement
- Format: physicochemical
- COND: category from zeta potential

Sample answers from the record:
KIKIQINMWQ [JG1]: 1 (+1 = if > 4 mV)
KAKAQANM [TM152]: 0 (0 = -4mV to 4 mV)
KAKAQA [JJA2 / TM153]: -1 (-1 = if < -4 mV)
RGDCKIKIQINM [TM45]: 1 (+1 = if > 4 mV)
KFKFQFNMWQ [JG4]: 1 (+1 = if > 4 mV)

Incoming: What Zeta category ( +1 = if > 4 mV;-1 = if < -4 mV; 0 = -4mV to 4 mV) value was documented for this substance, KIKQIINM [JGA2] ?
Outgoing: 1 (+1 = if > 4 mV)

Incoming: Param item = CKAKAQA [TM155] ; retrieve measured Zeta category ( +1 = if > 4 mV;-1 = if < -4 mV; 0 = -4mV to 4 mV).
Outgoing: -1 (-1 = if < -4 mV)

Incoming: Query (substance): QCKFKFQF [CK9] ; field requested: Zeta category ( +1 = if > 4 mV;-1 = if < -4 mV; 0 = -4mV to 4 mV)
Outgoing: 1 (+1 = if > 4 mV)

* * *

- ASSAY_TEXT: Zeta-potential measurement
- Type: physicochemical
- COND: mean, Std Zeta in next column
The substances listed here are annotated with their Zeta Pot. / mV.
Reply with a number, then the unit it belongs to.

QCKFKQFFNM [CK11]: 13.67 mV

Incoming: Consider the substance CKFKFQFNMW [KB14] and give its measured Zeta Pot. / mV.
Outgoing: 18.4 mV

Incoming: Look up Zeta Pot. / mV for this substance: QCKIKQII [CK6]
Outgoing: 11 mV

Incoming: Zeta Pot. / mV for RGDKIKIQINMWQ [MG9a] ?
Outgoing: 6.59 mV

Incoming: Endpoint output: Zeta Pot. / mV of RGDKIKIQIC [MG7/CN1] . Value?
Outgoing: 16.5 mV

Incoming: // query Zeta Pot. / mV value for entry CSISIQI [TM141]
Outgoing: -25.93 mV

Incoming: Entry QCKFKQFF [CK12] : reported Zeta Pot. / mV = ?
Outgoing: 4.94 mV

Incoming: Look at this substance and give its reported Zeta Pot. / mV. KFKFQFW [TM71]
Outgoing: 6.49 mV

Incoming: Give its Zeta Pot. / mV value. Item: RGDSKIKIQIC [TM113 / RC11]
Outgoing: 15.1 mV

* * *

Entries and their measured Abs. Inf. follow.
- System: HIV-1 infection of TZM-bl cells
- ASSAY_TEXT: HIV-1 infectivity enhancement assay, β-galactosidase luminescence
- Format: cell-based
- COND: absolute infection signal, HIV-1 on TZM-bl cells, β-galactosidase luminescence
Answer field: number only, no words.

These solved cases illustrate the format of a correct answer.
KFKFQFNM: 7067
TKTLTKTL: 316.7
KFKFQFNMW: 6690

Incoming: Any idea what its Abs. Inf. is? The sequence is QCKIKQIINMWQ [reference compound]
Outgoing: 21312.22222

Incoming: Param item = CKAKAQANMWQ ; retrieve measured Abs. Inf..
Outgoing: 600

Incoming: Quick check: Abs. Inf. of QCKIKIQINM ?
Outgoing: 15250

Incoming: Would you mind telling me what Abs. Inf. value was observed for CKFKQFFNM ?
Outgoing: 15720

Incoming: // query Abs. Inf. value for entry QCKIKIQI
Outgoing: 3577

Incoming: Report Abs. Inf. for QCKFKQFFNM please.
Outgoing: 5847

Incoming: Which Abs. Inf. value is on record for NMWQKFKFQF ?
Outgoing: 7323
